target: Cyclin-dependent kinase 2 (Homo sapiens) (UniProt P24941); settings: at 0.1 µM;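 also: mean inhibition of CDK2 bound to cyclin A, from the GSK PKIS kinase inhibitor set screen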
Measured Metric: inhibition (%)
// return numeric value only (unit: %, not printed)

For reference, reported inhibition for COc1cc(Nc2ncc(-c3ccccc3)o2)cc(OC)c1 stands at 1.87

For reference, reported inhibition for CCN1CCC(C(=O)Nc2n[nH]c3nnc(-c4cccc(F)c4F)cc23)CC1 stands at 3.86

For reference, reported inhibition for COc1ccc(Nc2ncc(-c3ccccc3)o2)cc1OC stands at 8.91

For reference, reported inhibition for COC(=O)Nc1nc2ccc(Oc3ccc(NC(=O)Nc4cc(C(F)(F)F)ccc4F)cc3)cc2s1 stands at 1.75

For reference, reported inhibition for COC(=O)Nc1nc2cc(Oc3ccc(NC(=O)Nc4ccccc4)cc3)ccc2[nH]1 stands at 1.21

----------
target: Epidermal growth factor receptor (Homo sapiens) (UniProt P00533); conditions: at 1 µM;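 also: values are mean inhibition figures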
Sequence (P00533 whole entry): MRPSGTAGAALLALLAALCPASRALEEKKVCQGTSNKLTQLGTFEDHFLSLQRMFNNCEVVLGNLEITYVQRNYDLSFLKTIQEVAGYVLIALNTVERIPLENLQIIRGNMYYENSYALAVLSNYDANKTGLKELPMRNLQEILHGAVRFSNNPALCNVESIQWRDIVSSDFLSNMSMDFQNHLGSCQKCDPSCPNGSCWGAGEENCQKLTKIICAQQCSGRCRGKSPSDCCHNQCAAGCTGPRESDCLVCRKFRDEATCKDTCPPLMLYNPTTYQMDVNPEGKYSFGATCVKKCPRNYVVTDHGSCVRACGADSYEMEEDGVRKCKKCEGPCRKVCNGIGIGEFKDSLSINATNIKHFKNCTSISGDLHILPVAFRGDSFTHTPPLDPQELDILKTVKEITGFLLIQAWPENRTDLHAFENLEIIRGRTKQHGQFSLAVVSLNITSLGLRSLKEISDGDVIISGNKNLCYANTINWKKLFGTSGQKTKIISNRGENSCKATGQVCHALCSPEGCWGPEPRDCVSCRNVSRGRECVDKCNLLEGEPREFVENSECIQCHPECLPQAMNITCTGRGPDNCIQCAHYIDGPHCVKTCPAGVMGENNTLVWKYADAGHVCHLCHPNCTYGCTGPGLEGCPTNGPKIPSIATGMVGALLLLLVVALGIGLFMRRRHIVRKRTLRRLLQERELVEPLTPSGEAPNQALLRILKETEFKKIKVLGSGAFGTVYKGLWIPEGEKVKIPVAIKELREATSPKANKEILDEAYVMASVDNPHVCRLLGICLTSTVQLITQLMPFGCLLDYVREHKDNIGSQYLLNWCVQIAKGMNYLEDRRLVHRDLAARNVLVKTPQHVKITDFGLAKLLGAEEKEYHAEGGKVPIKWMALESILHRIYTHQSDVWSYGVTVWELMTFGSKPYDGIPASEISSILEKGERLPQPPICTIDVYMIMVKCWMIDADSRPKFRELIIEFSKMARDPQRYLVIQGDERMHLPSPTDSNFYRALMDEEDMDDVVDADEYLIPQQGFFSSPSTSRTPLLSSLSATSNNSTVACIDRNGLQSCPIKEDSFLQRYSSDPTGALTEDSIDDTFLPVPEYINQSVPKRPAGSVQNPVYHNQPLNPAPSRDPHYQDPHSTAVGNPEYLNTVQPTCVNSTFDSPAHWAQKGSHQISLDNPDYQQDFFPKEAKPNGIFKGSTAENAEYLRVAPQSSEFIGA
Measured Metric: inhibition (%)
// return numeric value only (unit: %, not printed)

For reference, reported inhibition for FC(F)(F)CNc1nccc(-c2cnn3ncccc23)n1 stands at 6.21

For reference, reported inhibition for CCOc1ccc2c(-c3ccnc(Nc4cc(OC)cc(C(F)(F)F)c4)n3)cnn2n1 stands at 5.28

For reference, reported inhibition for CN(c1ccc(NC(=O)NCCN2CCOCC2)cc1)c1ccnc(Nc2ccc(CS(C)(=O)=O)cc2)n1 stands at 1.28

For reference, reported inhibition for COc1ccc(Nc2ncc(-c3ccccc3)o2)cc1OC stands at 5.16

For reference, reported inhibition for COc1c(C(N)=O)cc(-c2ccc(Cl)cc2)cc1-c1ccc(S(N)(=O)=O)cc1 stands at 2.79

For reference, reported inhibition for NS(=O)(=O)c1ccc(N/N=C2\C(=O)Nc3cccc(CCc4ccncc4)c32)cc1 stands at 6.81

For reference, reported inhibition for NC(=O)c1ccc2c(-c3ccnc(NCCCO)n3)c(-c3ccc(F)cc3)nn2c1 stands at 17.3

For reference, reported inhibition for CCS(=O)(=O)c1ccc(OC)c(Nc2ncc(-c3cccc(F)c3)o2)c1 stands at 9.19

For reference, reported inhibition for COc1cc(N2CCN(C(C)C)CC2)ccc1Nc1nc(Nc2cccc(F)c2C(=O)O)c2cc[nH]c2n1 stands at 3.33

For reference, reported inhibition for CN1CCC(n2cnc(-c3ccc(F)cc3)c2-c2ccnc(NCCO)n2)CC1 stands at 6.58

For reference, reported inhibition for Cn1c(-c2nonc2N)nc2cnccc21 stands at 8.08

For reference, reported inhibition for CC1=C(C(=O)Nc2ccc3[nH]ncc3c2)C(c2ccc(F)cc2)N=C(c2ccc(C(F)(F)F)nc2)N1 (stereo unspecified) stands at 7.73

For reference, reported inhibition for O=C1Nc2ccccc2/C1=C1\CCc2cc(O)ccc21 stands at 1.05

For reference, reported inhibition for O=C(O[C@H]1CN[C@H](C#Cc2cc3ncnc(Nc4ccc5c(ccn5Cc5cc(F)ccc5F)c4)c3s2)C1)N1CCOCC1 stands at 76.4

For reference, reported inhibition for Fc1ccc(Nc2nccc(-c3c(-c4ccc(C(F)(F)F)cc4)nn4ncccc34)n2)cc1F stands at 2.88

For reference, reported inhibition for COc1ccccc1-c1cc(/C=C2\C(=O)Nc3ncc(Br)cc32)cc(Br)c1O stands at 2.08

For reference, reported inhibition for c1cnn2ncc(-c3ccnc(NCCCN4CCOCC4)n3)c2c1 stands at 0.23

For reference, reported inhibition for CCN1CCC(C(=O)Nc2n[nH]c3nnc(-c4cccc(F)c4F)cc23)CC1 stands at 2.27

For reference, reported inhibition for CC(C)c1ccc(-c2cc(-c3c[nH]nc3-c3ccccn3)ccn2)cc1 stands at 3.14

For reference, reported inhibition for CS(=O)(=O)CCNCc1ccoc1-c1ccc2ncnc(Nc3ccc(OCc4ccccc4)cc3)c2c1 stands at 86.2

For reference, reported inhibition for Cc1c2ccc(N(C)c3ccnc(Nc4cccc(S(N)(=O)=O)c4)n3)cc2nn1C stands at 0.64
